ASSAY_SYSTEM: T1, recombinant human CD123-Fc (human, UniProt P26951 19-305)
T1 construct: not shown: Fc part of CD123-Fc
T1 sequence: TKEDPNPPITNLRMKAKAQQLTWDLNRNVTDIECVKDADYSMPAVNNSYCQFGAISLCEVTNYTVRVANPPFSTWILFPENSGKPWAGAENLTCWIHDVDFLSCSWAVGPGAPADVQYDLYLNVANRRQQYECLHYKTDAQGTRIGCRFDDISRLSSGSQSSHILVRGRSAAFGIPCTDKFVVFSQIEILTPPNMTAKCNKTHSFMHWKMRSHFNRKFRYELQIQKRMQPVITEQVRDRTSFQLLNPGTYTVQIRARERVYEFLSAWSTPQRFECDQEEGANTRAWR
TEST_METHOD_NOTES: phage ELISA, captured CD123-Fc
Decide by ELISA_avg: equal to or exceeding 7 ratio A450 target/IgG1-Fc means y, less means n.

Q. Exam item: decide whether the reported ELISA_avg for SEQ ID NO: 387 (designed binder, D domain, on phage) MGSWLEFMWRLDAIDERLWALGGSEAELAAFEKEIAAFESELQAYKGKGNPEVELLREMAAAIRDDLQAYRHN is at least 7 ratio A450 target/IgG1-Fc.
A. n

Q. Is ELISA_avg at least 7 ratio A450 target/IgG1-Fc? Consider SEQ ID NO: 428 (designed binder, D domain, on phage) MGSWFEFYDRLDAIYMRLIALGGSEAELAAFEKEIAAFESELQAYKGKGNPEVEVLRRYAANIRAELQAYRHN
A. y

Q. Can SEQ ID NO: 578 (designed binder, D domain, on phage) MGSWYEFVSRLDAIEYRLWALGGSEAELAWFEWDIADFEQGLQFYKGKGNPEVEALAQEANAIGSELTAYRHN be said to have ELISA_avg at or above 7 ratio A450 target/IgG1-Fc?
A. n

Q. // inclusive: ELISA_avg at least 7 ratio A450 target/IgG1-Fc? input: SEQ ID NO: 557 (designed binder, D domain, on phage) MGSWEEFHERLDAIDERLEALGGSEAELAFFEDDIASFEDWLQWYKGKGNPEVEALSREADAINFELEAYRHN
A. n

Q. Reported ELISA_avg at or above 7 ratio A450 target/IgG1-Fc? SEQ ID NO: 444 (designed binder, D domain, on phage) MGSWYWFKDDLAEIKGLLEALGGSEAELAEFEDEIAVFEQELQEYKGKGNPEVEALRKEAAAIRDELQAYRHN
A. y

Q. Check the entry SEQ ID NO: 319 (designed binder, D domain, on phage) MGSWVEFWQRLEAIESRLWALGGSEAELAAFEKEIAAFESELQAYKGKGNPEVEFLREEAAEIRWELQAYRHN : does ELISA_avg equal or exceed 7 ratio A450 target/IgG1-Fc?
A. y

Q. Test whether the binder SEQ ID NO: 463 (designed binder, D domain, on phage) MGSWETFKYELAEIKDYLEALGGSEAELAWFEDDIAEFEFELQYYKGKGNPEVEALRKEAAAIRDELQAYRHN records ELISA_avg of 7 ratio A450 target/IgG1-Fc or higher.
A. n

Q. Entry SEQ ID NO: 604 (designed binder, D domain, on phage) MGSWIEFMDRLWAIDQRLWALGGSEAELAWFEEEIAWFEEELQVYKGKGNPEVEALEWEATAISEELWAYRHN : is its ELISA_avg no less than 7 ratio A450 target/IgG1-Fc?
A. n

Q. Decide: is the reported value of ELISA_avg for SEQ ID NO: 318 (designed binder, D domain, on phage) MGSWVEFWFRLEAIDSRLWALGGSEAELAAFEKEIAAFESELQAYKGKGNPEVEWLREEAAAIREDLQAYRHN equal to or greater than 7 ratio A450 target/IgG1-Fc?
A. n
